Test system: RPS6KA5(Kin.Dom.2-C-terminal);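 further: KINOMEscan kinase panel screen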
Conditions: concentration: 1 μM, replicates: in singlicate; n = 1
The compounds listed here are annotated with their %Inh.
Metric name: %Inh (%)

> print(dat)
                                    compound            experimental.target  output.unit  measured.result
 1  Fc1cc(Cl)ccc1Nc1ccnc2cc(-c3ccc(CN4CCSCC4)o3)ccc12 [GW560106]  RPS6KA5(Kin.Dom.2-C-terminal)            %                0
 2  O=C1NC(=O)C(c2ccccc2Cl)=C1Nc1cccc(Cl)c1 [SB-342409]  RPS6KA5(Kin.Dom.2-C-terminal)            %                0
 3  Cc1ccc(NC(=O)c2ccnc(N3CCCCC3)c2)cc1-c1ccc(C(=O)NCC2CC2)cc1 [GW775610]  RPS6KA5(Kin.Dom.2-C-terminal)            %                0
 4  NCCC(NC(=O)c1cc(Br)c(-c2ccnc3[nH]ccc23)s1)c1ccccc1.O=C(O)C(F)(F)F.O=C(O)C(F)(F)F (stereo not shown) [GSK1307810]  RPS6KA5(Kin.Dom.2-C-terminal)            %               46
 5  Nc1ncnc2scc(-c3ccc(NC(=O)Cc4cc(F)ccc4F)cc3)c12.O=C(O)C(F)(F)F [SB-731254-M]  RPS6KA5(Kin.Dom.2-C-terminal)            %                0
 6  COC(=O)Nc1nc2cc(Oc3ccc(NC(=O)Nc4cccc(SC)c4)cc3)ccc2[nH]1.Cl [GW697999]  RPS6KA5(Kin.Dom.2-C-terminal)            %                0
 7  Cl.Cl.NC(CNC(=O)c1cc(Br)c(-c2ccnc3[nH]ccc23)s1)c1ccccc1 (stereo not shown) [GSK1322949]  RPS6KA5(Kin.Dom.2-C-terminal)            %               33
 8  COC(=O)Nc1nc2ccc(Oc3ccc(CC(=O)Nc4cc(C(F)(F)F)ccc4F)cc3)cc2[nH]1 [GW680903]  RPS6KA5(Kin.Dom.2-C-terminal)            %                0
 9  Cl.N#CCc1ccc(Nc2nccc(Nc3ccc(Oc4ccccc4)cc3)n2)cc1 [GW639905]  RPS6KA5(Kin.Dom.2-C-terminal)            %                0
10  CS(=O)(=O)c1cccc(CNc2nc(Nc3ccc4c(c3)CCC(=O)N4)ncc2C(F)(F)F)c1  RPS6KA5(Kin.Dom.2-C-terminal)            %                5
11  Cc1ccc(O)cc1Nc1ccnc2ccc(C(C)(C)C)cc12 [GW856805]  RPS6KA5(Kin.Dom.2-C-terminal)            %                8
12  COc1cc(Nc2ccnc3cc(-c4ccncc4)ccc23)cc(OC)c1OC.Cl [GW494610]  RPS6KA5(Kin.Dom.2-C-terminal)            %                0
13  CN(c1ccc(NC(=O)N2CCN(CCCN3CCOCC3)CC2)cc1)c1ccnc(Nc2ccc(CS(C)(=O)=O)cc2)n1.Cl [GW830899]  RPS6KA5(Kin.Dom.2-C-terminal)            %                0
14  Cc1ccc(NC(=O)c2cccc(N3CCCCC3)c2)cc1-c1ccc(C(=O)NCC2CC2)cc1 [GSK1917008]  RPS6KA5(Kin.Dom.2-C-terminal)            %                8
15  Cc1cccc(Nc2nc(N[C@H]3CCCC[C@H]3N)ncc2C(N)=O)c1.Cl [GSK986310]  RPS6KA5(Kin.Dom.2-C-terminal)            %                0
16  CN(c1ccc(NC(=O)Nc2cccc(Cl)c2)cc1)c1ccnc(N)n1.Cl [GW830707]  RPS6KA5(Kin.Dom.2-C-terminal)            %                0
17  CNc1nccc(-c2ccc3c(N)n[nH]c3c2)n1 [GSK2206003]  RPS6KA5(Kin.Dom.2-C-terminal)            %               63
18  Cc1ccc(O)cc1Nc1ccnc2cc(-c3ccc(CN4CCCCC4)o3)ccc12 [GW557777]  RPS6KA5(Kin.Dom.2-C-terminal)            %               10
19  O=C(Nc1c(F)cccc1F)c1cc(C(=O)c2ccccc2F)c[nH]1 [GSK1326180]  RPS6KA5(Kin.Dom.2-C-terminal)            %                0
20  Cc1cccc(Nc2nc(NCCN)ncc2C(N)=O)c1 [GSK1292139]  RPS6KA5(Kin.Dom.2-C-terminal)            %               29
21  COc1cccc2c(-c3ccncc3)c(-c3ccc(F)cc3)nn12 [GW468513]  RPS6KA5(Kin.Dom.2-C-terminal)            %                0
22  CC(C)NCC(Cc1ccccc1)NC(=O)c1cc(Br)c(-c2ccnc3[nH]ccc23)s1.Cl.Cl (stereo not shown) [GSK1383281]  RPS6KA5(Kin.Dom.2-C-terminal)            %               22
23  CN(c1ccc(F)c(NC(=O)c2cccc(OC(C)(C)C#N)c2Cl)c1)c1ccc2nc(NC(=O)C3CC3)sc2n1  RPS6KA5(Kin.Dom.2-C-terminal)            %                6
24  O=C(O)C(F)(F)F.O=c1[nH]ccc2nc(N[C@@H]3CCNC3)nc(Nc3ccc4c(c3)S(=O)(=O)CC4)c12 [GSK2181306]  RPS6KA5(Kin.Dom.2-C-terminal)            %             95.4
25  Cn1cc(-c2cnc(N)c3c(-c4ccc5c(c4)CCN5C(=O)Cc4ccccc4)csc23)cn1 [GSK2593074]  RPS6KA5(Kin.Dom.2-C-terminal)            %                2
26  Cc1ccc(-c2ccc3occ(-c4ccc(S(C)=O)cc4)c3c2)nn1 (stereo not shown)  RPS6KA5(Kin.Dom.2-C-terminal)            %                0
27  CC(C)c1nc(-c2ccc(F)c(NS(=O)(=O)c3c(F)cccc3F)c2)c(-c2ccnc(Nc3ccc(N4CCOCC4)nc3)n2)s1 [GSK1804250]  RPS6KA5(Kin.Dom.2-C-terminal)            %                3
28   CCn1cnc2c(NCc3ccccc3)ncnc21 [SKF-96418]  RPS6KA5(Kin.Dom.2-C-terminal)            %                0
29  CC(=O)Nc1cn2nc(Oc3cccc(NC(=O)c4cccc(C(F)(F)F)c4)c3)ccc2n1  RPS6KA5(Kin.Dom.2-C-terminal)            %                6
30  COc1cccc(NC(=O)NCCNc2ccnc(Nc3ccc(F)cc3)n2)c1 [GSK1379879]  RPS6KA5(Kin.Dom.2-C-terminal)            %               34
31  COc1cccc(CC(=O)N2CCc3cc(-c4cn(C)c5ncnc(N)c45)ccc32)c1 [GSK2608899]  RPS6KA5(Kin.Dom.2-C-terminal)            %               11
